measured.target: JAK3 (JH1 and JH2 domain) (Homo sapiens)
test.method.notes: JAK3 Kinase Assay (ELISA of peptide substrate phosphorylation)
test.context: purified JAK3 enzyme, 10 μM ATP, biotinylated peptide substrate, 1 hour at room temperature
pIC50: −log10 of the molar value.
reported.property: pIC50

O=C1NCc2c1c1c3ccccc3n3c1c1c2c2ccccc2n1CC(COC(=O)N1CCN(CCOCCO)CC1)C3 (stereo not shown): 6.24
CC1(C)O[C@H]2Cn3c4ccccc4c4c5c(c6c7ccccc7n(c6c43)C[C@@H]2O1)C(=O)NC5: 6.98
Cc1ncsc1/C=C/c1ccc2c(c1)c1c3c(c4c5ccccc5n5c4c1n2CC(CO)C5)CNC3=O (stereo not shown): 6.23
O=C1NC(=O)c2c1c1c3ccccc3n3c1c1c2c2ccccc2n1CC(OC(=O)N1CCN(c2ccccc2)CC1)CC3 (stereo not shown): 7.44

I: O=C1NC(=O)c2c1c1c3ccccc3n3c1c1c2c2ccccc2n1CC(OC(=O)N1CCOCC1)CC3 (stereo not shown)
II: O=C1NCc2c1c1c3ccccc3n3c1c1c2c2ccccc2n1CC(O)(COC(=O)N1CCN(c2ccc(O)cc2)CC1)C3 (stereo not shown)
Exercise: Out of I and II , name the one with the higher pIC50. Kindly give the label for the entry you pick.
Key: I

---

measured.target: JAK3 (JH1 and JH2 domain) (Homo sapiens)
test.method.notes: JAK3 Kinase Assay (ELISA of peptide substrate phosphorylation)
test.context: purified JAK3 enzyme, 10 μM ATP, biotinylated peptide substrate, 1 hour at room temperature
pIC50: −log10 of the molar value.
reported.property: pIC50

O=C1NC(=O)c2c1c1c3ccccc3n3c1c1c2c2ccccc2n1CC(OC(=O)N1CCN(c2ccccn2)CC1)CC3 (stereo not drawn) [Cpd 63]: 6.89
O=C1NC(=O)c2c1c1c3ccccc3n3c1c1c2c2ccccc2n1CC(O)(C(=O)NC1CCOC1=O)C(O)C3 (stereo not drawn) [Cpd 122]: 7.20
O=C(NCc1ccncc1)OC1Cn2c3ccccc3c3c4c(c5c6ccccc6n(c5c32)CC1O)C(=O)NC4=O (stereo not drawn) [Cpd 89]: 7.57
CC1(C)OCC2(CO1)Cn1c3ccccc3c3c4c(c5c6ccccc6n(c5c31)C2)C(=O)NC4 [Cpd 26]: 7.02

P: CC(C)OCc1ccc2c(c1)c1c3c(c4c5ccccc5n5c4c1n2CC(CO)C5)CNC3=O (stereo not drawn) [Cpd 211]
Q: CC(C)(C)OC(=O)NC1CCN(C(=O)OCC2(O)Cn3c4ccccc4c4c5c(c6c7ccccc7n(c6c43)C2)C(=O)NC5)CC1 (stereo not drawn) [Cpd 175]
R: O=C(NCc1ccncc1)OC1CCn2c3ccccc3c3c4c(c5c6ccccc6n(c5c32)C1)C(=O)NC4=O (stereo not drawn) [Cpd 47]
S: Cc1ccc(CNC(=O)OC2CCn3c4ccccc4c4c5c(c6c7ccccc7n(c6c43)C2)C(=O)NC5=O)cc1 (stereo not drawn) [Cpd 45]
Exercise: hey, can you rank those molecules up there by pIC50? biggest number first please Ranked list of labels, please, in the requested order.
Key: R, S, P, Q
(R: 7.52, S: 7.21, P: 6.97, Q: 6.61)

---

measured.target: JAK3 (JH1 and JH2 domain) (Homo sapiens)
Sequence (P52333 521-1111 limits assumed): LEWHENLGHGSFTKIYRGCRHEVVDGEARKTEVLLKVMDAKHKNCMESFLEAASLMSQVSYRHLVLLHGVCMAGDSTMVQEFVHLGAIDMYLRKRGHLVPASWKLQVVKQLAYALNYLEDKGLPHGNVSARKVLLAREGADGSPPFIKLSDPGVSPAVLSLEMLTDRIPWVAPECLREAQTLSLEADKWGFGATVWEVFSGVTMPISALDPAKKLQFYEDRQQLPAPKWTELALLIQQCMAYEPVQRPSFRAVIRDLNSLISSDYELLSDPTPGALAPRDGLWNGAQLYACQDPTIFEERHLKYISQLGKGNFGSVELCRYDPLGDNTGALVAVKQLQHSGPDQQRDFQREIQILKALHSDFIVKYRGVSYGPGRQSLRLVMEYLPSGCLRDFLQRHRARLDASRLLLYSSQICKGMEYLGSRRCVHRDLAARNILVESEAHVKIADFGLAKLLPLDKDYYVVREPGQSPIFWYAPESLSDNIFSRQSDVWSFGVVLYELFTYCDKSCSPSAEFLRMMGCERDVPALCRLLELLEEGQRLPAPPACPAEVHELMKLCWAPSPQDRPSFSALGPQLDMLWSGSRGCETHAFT
test.method.notes: JAK3 Kinase Assay (ELISA of peptide substrate phosphorylation)
Type: biochemical
test.context: purified JAK3 enzyme, 10 μM ATP, biotinylated peptide substrate, 1 hour at room temperature
reported.property: IC50 (nM)

For orientation, consider the following solved cases.
O=C1NC(=O)c2c1c1c3ccccc3n3c1c1c2c2ccccc2n1CC(O)(C(=O)NCCc1cccs1)C(O)C3 (stereo not drawn) [Cpd 128]: 94
COCCNC(=O)OC1CCn2c3ccccc3c3c4c(c5c6ccccc6n(c5c32)CC1)C(=O)NC4 (stereo not drawn) [Cpd 179]: 1060
O=C(NCCc1ccccn1)OCC1(O)Cn2c3ccccc3c3c4c(c5c6ccccc6n(c5c32)C1)C(=O)NC4 (stereo not drawn) [Cpd 139]: 160
O=C(NCCCn1ccnc1)OC1Cn2c3ccccc3c3c4c(c5c6ccccc6n(c5c32)CC1O)C(=O)NC4=O (stereo not drawn) [Cpd 91]: 44

A: O=C1NCc2c1c1c3cc(/C=C/n4ccnc4)ccc3n3c1c1c2c2ccccc2n1CC(CO)C3 (stereo not drawn) [Cpd 220]
B: CC(C)NC(=O)OCC1Cn2c3ccccc3c3c4c(c5c6ccccc6n(c5c32)C1)C(=O)NC4 (stereo not drawn) [Cpd 155]
C: O=C1NC(=O)c2c1c1c3ccccc3n3c1c1c2c2ccccc2n1CC(O)(C(=O)N1CCN(CCN2CCOCC2)CC1)C(O)C3 (stereo not drawn) [Cpd 134]
D: CN1CCN(CCCNCc2ccc3c(c2)c2c4c(c5c6ccccc6n6c5c2n3CC(O)C(O)C6)CNC4=O)CC1 (stereo not drawn) [Cpd 197]
Exercise: # desc sort on IC50 across 4 compounds Reply with the labels, ordered as the question asks.
Key: D, B, A, C
(D: 693 nM, B: 144 nM, A: 90 nM, C: 53 nM)

1: O=C1NCc2c1c1c3ccccc3n3c1c1c2c2ccccc2n1CC/C=C\CC3 [Cpd 5]
2: O=C1NC(=O)c2c1c1c3ccccc3n3c1c1c2c2ccccc2n1CC(OC(=O)N1CCN(C(c2ccccc2)c2ccccc2)CC1)C(O)C3 (stereo not drawn) [Cpd 103]
3: O=C1NCc2c1c1c3ccccc3n3c1c1c2c2cc(CO)ccc2n1CC(CO)C3 (stereo not drawn) [Cpd 212]
4: COC(=O)C1(O)Cn2c3ccccc3c3c4c(c5c6ccccc6n(c5c32)CC1O)C(=O)NC4=O (stereo not drawn) [Cpd 12]
5: COc1ccc(CCNC(=O)OCC2Cn3c4ccccc4c4c5c(c6c7ccccc7n(c6c43)C2)C(=O)NC5)cc1OC (stereo not drawn) [Cpd 161]
Exercise: Put the items in sequence by IC50, from largest down. Kindly provide the labels arranged according to the requested ordering.
Key: 5, 2, 1, 3, 4
(5: 1010 nM, 2: 436 nM, 1: 39 nM, 3: 3 nM, 4: 1 nM)

---

measured.target: JAK3 (JH1 and JH2 domain) (Homo sapiens)
Sequence (P52333 521-1111 limits assumed): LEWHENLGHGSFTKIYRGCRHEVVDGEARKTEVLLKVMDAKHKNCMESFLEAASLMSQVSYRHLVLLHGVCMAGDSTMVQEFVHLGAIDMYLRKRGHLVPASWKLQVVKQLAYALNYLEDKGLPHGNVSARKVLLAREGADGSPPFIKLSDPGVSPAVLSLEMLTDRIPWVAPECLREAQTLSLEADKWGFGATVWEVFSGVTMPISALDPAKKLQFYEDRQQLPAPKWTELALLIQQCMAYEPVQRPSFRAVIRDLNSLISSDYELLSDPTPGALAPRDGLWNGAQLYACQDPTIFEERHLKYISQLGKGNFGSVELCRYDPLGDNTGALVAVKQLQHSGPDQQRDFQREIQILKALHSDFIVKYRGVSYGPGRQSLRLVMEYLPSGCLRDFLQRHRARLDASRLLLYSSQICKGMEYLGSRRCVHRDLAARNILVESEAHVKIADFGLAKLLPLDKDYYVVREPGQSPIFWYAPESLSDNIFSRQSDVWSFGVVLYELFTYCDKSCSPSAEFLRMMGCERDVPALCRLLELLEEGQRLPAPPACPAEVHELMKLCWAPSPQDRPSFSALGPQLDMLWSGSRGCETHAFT
test.method.notes: JAK3 Kinase Assay (ELISA of peptide substrate phosphorylation)
test.context: purified JAK3 enzyme, 10 μM ATP, biotinylated peptide substrate, 1 hour at room temperature
pIC50: −log10 of the molar value.
reported.property: pIC50

CN(C)CCNC(=O)OC1CCn2c3ccccc3c3c4c(c5c6ccccc6n(c5c32)C1)C(=O)NC4=O (centres unmarked): 7.51

I: O=C1NC(=O)c2c1c1c3ccccc3n3c1c1c2c2ccccc2n1CC(O)(C(=O)N1CCN(CCO)CC1)C(O)C3 (centres unmarked)
II: O=C1NCc2c1c1c3ccccc3n3c1c1c2c2ccccc2n1CC(O)(COC(=O)N1CCCNCC1)C3 (centres unmarked)
III: O=C1NCc2c1c1c3cc(OCCN4CCOCC4)ccc3n3c1c1c2c2ccccc2n1CC(O)C(O)C3 (centres unmarked)
IV: COC(=O)/C1=C/Cn2c3ccccc3c3c4c(c5c6ccccc6n(c5c32)C1)C(=O)NC4=O
Exercise: Could you please order the items by pIC50, going from the lowest number to the highest? Output the labels ranked as instructed.
Key: III, I, II, IV
(III: 6.21, I: 7.32, II: 7.59, IV: 8.15)

Sourced from patent US20070249590A1
